The origin of these recorded values is patent US20140120095A1.

test-target: T1, recombinant human DLL4 (C-terminally His-tagged extracellular domain, R&D Systems) (human, UniProt Q9NR61 25-522, biotinylated in the competition ELISA)
T1 construct: also called rhDLL4; hDLL4
T1 sequence (Q9NR61 25-522): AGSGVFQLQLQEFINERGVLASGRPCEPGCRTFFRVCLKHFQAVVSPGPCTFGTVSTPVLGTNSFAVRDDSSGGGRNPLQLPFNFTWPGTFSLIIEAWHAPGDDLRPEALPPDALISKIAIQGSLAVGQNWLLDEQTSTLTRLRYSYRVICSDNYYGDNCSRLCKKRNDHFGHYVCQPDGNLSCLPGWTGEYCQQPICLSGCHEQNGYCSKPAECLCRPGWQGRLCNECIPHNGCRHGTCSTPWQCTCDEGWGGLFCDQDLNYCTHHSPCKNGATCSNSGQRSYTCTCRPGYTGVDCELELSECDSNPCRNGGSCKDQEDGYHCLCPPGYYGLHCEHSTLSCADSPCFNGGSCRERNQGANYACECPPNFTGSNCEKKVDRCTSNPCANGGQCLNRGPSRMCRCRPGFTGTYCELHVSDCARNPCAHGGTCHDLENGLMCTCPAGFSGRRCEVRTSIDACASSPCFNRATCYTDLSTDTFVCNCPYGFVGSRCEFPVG
test-protocol: SPR (Biacore), rhDLL4
quantity-kind: kon (M⁻¹ s⁻¹)
Just the number please, in M⁻¹ s⁻¹, no unit attached.

binder	kon [M⁻¹ s⁻¹]
DLLBII133A09 (VHH, not shown: small tags and cut ends) VHH: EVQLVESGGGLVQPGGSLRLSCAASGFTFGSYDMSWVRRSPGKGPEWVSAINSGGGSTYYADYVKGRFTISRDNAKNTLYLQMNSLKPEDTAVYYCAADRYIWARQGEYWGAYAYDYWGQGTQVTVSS	440000

Now take the following binder into account.
Entry DLLBII129B05 (VHH, not shown: small tags and cut ends) VHH: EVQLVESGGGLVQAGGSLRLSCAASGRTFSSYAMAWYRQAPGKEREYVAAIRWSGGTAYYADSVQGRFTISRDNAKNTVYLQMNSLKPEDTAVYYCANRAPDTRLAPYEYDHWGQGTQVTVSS — recorded kon = 230000
